Where do the numbers come from? From PubChem BioAssay.

assay: binders of probe aFGF2 on microarray, primary screen, stem cell growth factor project, biochemical, small-molecule microarray, fluorescence 635/667 (AID 1067); details: higher = more signal;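 also: measures binding of biotinylated aFGF2 protein to printed compounds on slides; z-score merges feature fluorescence and signal-to-noise across triplicate slides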
MEASUREMENT LABEL: composite z-score

[
  {
    "SMILES": "[N-]=[N+]=NCc1ccccc1C[C@]1(C(=O)O)N=C(c2ccc(OCCCO)cc2)O[C@H]1c1ccccc1",
    "MEASUREMENT LABEL": "composite z-score",
    "EXPERIMENTAL RESULT": -0.0184
  },
  {
    "SMILES": "O=C1N(CCS(=O)(=O)c2ccccc2)Cc2ccccc2C[C@]12N=C(c1ccc(OCCCO)cc1)O[C@@H]2c1ccccc1",
    "MEASUREMENT LABEL": "composite z-score",
    "EXPERIMENTAL RESULT": 0.0901
  },
  {
    "SMILES": "COCCOC(=O)N1C(=O)[C@@]2(c3cc(C#Cc4ccc(OC)cc4)ccc31)[C@H](C(=O)N1CCN(c3ncccn3)CC1)[C@H]1C(=O)O[C@H](c3ccccc3)[C@H](c3ccccc3)N1[C@@H]2c1ccc(O)cc1",
    "MEASUREMENT LABEL": "composite z-score",
    "EXPERIMENTAL RESULT": -0.144
  }
]
